// provenance: PubChem BioAssay AID1159580

- measurement.description: chemical genetic growth profiling, strain panel (AID 1159580);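 note: tested at 20 µM; growth read once vehicle control cultures reached saturation at 30 °C; 1 = growth at the plate median or of vehicle wells; lower values mean less growth of the strain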
- conditions: S. cerevisiae deletion strains, growth OD, locus YJL166W, strain qcr8, hits give low values
Hit rate of the full screen: of about 5,500 compounds, about 2,000 (36%) were called active. Another 18% or so got no clear call; they are omitted. The list shows a part of the results.
Below, each entry is listed alongside its reported normalized growth.
readout.type: normalized growth

- compound: "CC(=O)O[C@H]1CC[C@@]2(C)C(=CC(=O)C3C4CCC(C(C)CCCC(C)C)[C@@]4(C)CCC32)C1 (some centres undefined)"
  observed: "0.998 (inactive)"
- compound: "COc1ccc([C@@H]2CC(=O)c3c(O)cc(O[C@@H]4O[C@H](CO[C@H]5O[C@@H](C)[C@H](O)[C@@H](O)[C@H]5O)[C@@H](O)[C@H](O)[C@H]4O)cc3O2)cc1O"
  observed: "0.992 (inactive)"
- compound: "Cc1cc(=O)oc2cc(O)cc(O)c12"
  observed: "0.983 (inactive)"
- compound: "N=C(N)N"
  observed: "1.01 (inactive)"

---

Below, each entry is listed alongside its reported normalized growth.
- measurement.description: chemical genetic growth profiling, strain panel (AID 1159580);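 note: tested at 20 µM; growth read once vehicle control cultures reached saturation at 30 °C; 1 = growth at the plate median or of vehicle wells; lower values mean less growth of the strain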
- conditions: S. cerevisiae deletion strains, growth OD, locus YBR279W, strain paf1, hits give low values
Out of some 5,500 compounds screened, about 2,000 (36%) were called active. About 18% were inconclusive and are not listed. The list shows a part of the results.

- compound: "CCOC(=O)[C@H](CCc1ccccc1)N[C@@H](C)C(=O)N1CCC[C@H]1C(=O)O"
  normalized growth: 0.973
- compound: "CC(C)c1ccc2c(c1)CCC1[C@](C)(CN)CCC[C@]21C (stereo not given in full)"
  normalized growth: 0.976
- compound: "CO[C@H]1CC(O[C@@H]2/C(C)=C/C[C@@H]3C[C@@H](C[C@]4(CC[C@H](C)[C@@H](C5CCCCC5)O4)O3)OC(=O)[C@@H]3C=C(C)/C(=N\\O)[C@H]4OC/C(=C\\C=C\\[C@@H]2C)[C@]43O)O[C@@H](C)C1O (stereo not given in full)"
  normalized growth: 1.01
- compound: "CC1(C)CC2C1CC[C@]1(CBr)CCC3C(CC(=O)O)C(=O)O[C@@]32C1 (stereo not given in full)"
  normalized growth: 1.01
- compound: "NS(=O)(=O)c1cc2c(cc1Cl)NC(CSCc1ccccc1)=NS2(=O)=O"
  normalized growth: 1.01
- compound: "N=C(N)N"
  normalized growth: 0.993
- compound: "C/C1=C/CC(C)(C)/C=C/C/C(C)=C/CC1"
  normalized growth: 0.999
- compound: "CN(C)[C@@H]1C(=O)C(C(N)=O)=C(O)[C@@]2(O)C(=O)C3=C(O)c4c(O)ccc(Cl)c4[C@@H](O)[C@H]3C[C@@H]12"
  normalized growth: 0.994
- compound: "CC(=O)Oc1ccc(O)cc1"
  normalized growth: 0.986
- compound: "CNCCCC12CCC(c3ccccc31)c1ccccc12"
  normalized growth: 0.971
- compound: "NCC(=O)c1ccccc1"
  normalized growth: 1.01
- compound: "O=C(OCc1ccccc1)c1ccccc1"
  normalized growth: 0.979
- compound: "CC(C)c1ccc2c(c1)CCC1C(C)(C(N)=O)CCCC21C (stereo not given)"
  normalized growth: 0.992
- compound: "O=C(OOC(=O)c1ccccc1)c1ccccc1"
  normalized growth: 0.991
- compound: "CC(=O)Oc1cccc(O)c1"
  normalized growth: 1.02
